# IC50 per record follows
Tested on: Plasmodium falciparum
method summary: Antimalarial activity against multidrug-resistant Plasmodium falciparum K1 by microculture radioisotope assay
Format: functional, organism-based
test readout: IC50 (nM)

molecule: C[C@H]1[C@@H](O)O[C@@H]2O[C@@]3(C)CC[C@H]4[C@H](C)CC[C@@H]1[C@@]24OO3 [ARTENIMOL]
tgt: Plasmodium falciparum
test result: 3.3
//
molecule: COc1cc2c3c(oc2c(C)c1O)C(=O)C(C)=CC3=O [XYLARIAQUINONE A]
tgt: Plasmodium falciparum
test result: 6680
//
molecule: COC1=CC(=O)C(Cl)=C(C)C1=O
tgt: Plasmodium falciparum
test result: 1840
